- target: CB1 (mutant) (Homo sapiens)
- Sequence (P21554 1-417, change not shown): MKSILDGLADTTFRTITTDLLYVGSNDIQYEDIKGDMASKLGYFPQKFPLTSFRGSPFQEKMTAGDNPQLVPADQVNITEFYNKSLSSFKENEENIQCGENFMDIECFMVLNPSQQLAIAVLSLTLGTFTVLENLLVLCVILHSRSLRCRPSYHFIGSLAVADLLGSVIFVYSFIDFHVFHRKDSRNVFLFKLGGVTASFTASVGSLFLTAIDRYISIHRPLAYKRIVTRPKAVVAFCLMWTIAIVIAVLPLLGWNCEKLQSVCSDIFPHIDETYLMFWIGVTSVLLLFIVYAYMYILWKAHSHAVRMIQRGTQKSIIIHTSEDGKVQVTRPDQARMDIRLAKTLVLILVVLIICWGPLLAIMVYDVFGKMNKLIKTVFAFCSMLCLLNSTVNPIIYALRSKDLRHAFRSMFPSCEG
- protocol_text: R-SAT functional receptor assay, CB1 (mutant, truncated after amino acid 417)
- Assay type: cell-based
- test_settings: Appendix A; R-SAT CB1; receptor form not stated; relative to SR141716 (100%); read-out: % Inhibition

| compound | target | Emax (%) |
| --- | --- | --- |
| O=C(NCCc1ccncc1)c1ccc2c(c1)N=C(c1ccc(Cl)cc1)c1ccccc1S2 [drawing 1135] | CB1 (mutant) (Homo sapiens) | 116 |
| O=C(NCCc1cccnc1)c1ccc2c(c1)N=C(c1ccccn1)c1ccccc1S2 | CB1 (mutant) (Homo sapiens) | 77 |
| O=C(NC1CCCCC1)c1ccc2c(c1)N=C(c1cccc(F)c1)c1ccccc1S2 [drawing 941] | CB1 (mutant) (Homo sapiens) | 127 |
| CCCC1=Nc2cc(C(=O)NC(C)CC)ccc2Sc2ccccc21 (stereo not shown) | CB1 (mutant) (Homo sapiens) | 105 |
